Values compiled from paper PMC10786891.

Examples of binders with documented Kd follow.
Target: T1, EsCas13d, nuclease-dead (Eubacterium siraeum, UniProt B0MS50, R295A;H300A;R849A;H854A)
T1 sequence: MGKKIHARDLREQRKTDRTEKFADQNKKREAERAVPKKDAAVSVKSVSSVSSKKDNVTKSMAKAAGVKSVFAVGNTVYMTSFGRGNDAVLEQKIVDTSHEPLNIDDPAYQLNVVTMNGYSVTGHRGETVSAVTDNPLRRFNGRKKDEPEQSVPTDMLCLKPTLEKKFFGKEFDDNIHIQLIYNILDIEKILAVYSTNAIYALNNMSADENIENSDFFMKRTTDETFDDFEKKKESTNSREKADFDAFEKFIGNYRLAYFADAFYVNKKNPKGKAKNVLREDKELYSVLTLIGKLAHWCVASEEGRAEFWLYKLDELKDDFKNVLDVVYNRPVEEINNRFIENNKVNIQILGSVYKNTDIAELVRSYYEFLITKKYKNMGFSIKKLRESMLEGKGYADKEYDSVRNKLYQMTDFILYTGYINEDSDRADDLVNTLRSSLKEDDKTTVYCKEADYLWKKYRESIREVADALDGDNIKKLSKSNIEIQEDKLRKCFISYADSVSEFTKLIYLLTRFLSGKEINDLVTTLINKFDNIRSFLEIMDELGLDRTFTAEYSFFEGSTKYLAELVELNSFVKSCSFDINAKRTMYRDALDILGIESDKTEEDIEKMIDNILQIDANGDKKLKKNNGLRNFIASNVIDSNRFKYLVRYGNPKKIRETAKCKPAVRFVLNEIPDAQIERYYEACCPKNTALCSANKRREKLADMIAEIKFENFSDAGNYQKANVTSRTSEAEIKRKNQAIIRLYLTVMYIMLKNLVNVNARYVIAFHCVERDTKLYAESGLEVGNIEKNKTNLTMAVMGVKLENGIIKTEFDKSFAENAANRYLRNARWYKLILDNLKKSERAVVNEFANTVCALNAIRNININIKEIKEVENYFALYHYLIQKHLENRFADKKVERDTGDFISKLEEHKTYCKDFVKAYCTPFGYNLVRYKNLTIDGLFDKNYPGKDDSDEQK
Assay: crRNA (strand 1, pre-loaded); Mg2+; 40 mM Tris-HCl pH 7.5, 150 mM NaCl, 6 mM MgCl2, 1 mM DTT, 0.1% Tween-20, 0.2 mg/ml BSA; 25 C; 10 min per concentration, then washed
Conditions: tags: His6-TwinStrep-SUMO cleaved; N-terminal SNAP kept (SNAP-Surface 488); label: 3' end held by stalled T7 RNA polymerase
property-label: Kd (nM)

INSERT INTO assay_data (binder, value_units, measurement) VALUES
  ('target 1 insG 3'' of 16,insG 3'' of 3 (mixed) RNA 1: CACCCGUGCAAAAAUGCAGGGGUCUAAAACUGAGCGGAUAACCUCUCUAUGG RNA 2: GGGAAUGGAUCCACAUCUACGAAUUCGUACCAUAGAGGAGGUUAUCCGCUGCACCGAGAUCGGAAGAGCACACGU', 'nM', 16.2),
  ('target 1 MT 5''PFS GCC 3''PFS ACU (mixed) RNA 1: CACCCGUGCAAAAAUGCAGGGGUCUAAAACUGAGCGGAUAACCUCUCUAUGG RNA 2: GGGAAUGGAUCCACAUCUACGAAUUCGCCCCAUAGAGAGGUUAUCCGCUCAACUAGAUCGGAAGAGCACACGU', 'nM', 11.2),
  ('target 1 insU 3'' of 22,insA 3'' of 13 (mixed) RNA 1: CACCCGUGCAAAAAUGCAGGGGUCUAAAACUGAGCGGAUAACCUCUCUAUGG RNA 2: GGGAAUGGAUCCACAUCUACGAAUUCGUACUCAUAGAGAGAGUUAUCCGCUCACCGAGAUCGGAAGAGCACACGU', 'nM', 17.1),
  ('target 3 insC 3'' of 5,insU 3'' of 1 (mixed) RNA 1: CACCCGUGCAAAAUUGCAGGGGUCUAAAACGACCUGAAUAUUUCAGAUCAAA RNA 2: GGGAAUGGAUCCACAUCUACGAAUUCGUUUUUGAUCUGAAAUAUUCACGGUCUUGCAGAUCGGAAGAGCACACGU', 'nM', 10.8);
